Data credit: patent US20250221966A1

Target: human RXFP1 (Homo sapiens, UniProt Q9HBX9)
Construct: expressed in transfected cells
Sequence (Q9HBX9 whole entry): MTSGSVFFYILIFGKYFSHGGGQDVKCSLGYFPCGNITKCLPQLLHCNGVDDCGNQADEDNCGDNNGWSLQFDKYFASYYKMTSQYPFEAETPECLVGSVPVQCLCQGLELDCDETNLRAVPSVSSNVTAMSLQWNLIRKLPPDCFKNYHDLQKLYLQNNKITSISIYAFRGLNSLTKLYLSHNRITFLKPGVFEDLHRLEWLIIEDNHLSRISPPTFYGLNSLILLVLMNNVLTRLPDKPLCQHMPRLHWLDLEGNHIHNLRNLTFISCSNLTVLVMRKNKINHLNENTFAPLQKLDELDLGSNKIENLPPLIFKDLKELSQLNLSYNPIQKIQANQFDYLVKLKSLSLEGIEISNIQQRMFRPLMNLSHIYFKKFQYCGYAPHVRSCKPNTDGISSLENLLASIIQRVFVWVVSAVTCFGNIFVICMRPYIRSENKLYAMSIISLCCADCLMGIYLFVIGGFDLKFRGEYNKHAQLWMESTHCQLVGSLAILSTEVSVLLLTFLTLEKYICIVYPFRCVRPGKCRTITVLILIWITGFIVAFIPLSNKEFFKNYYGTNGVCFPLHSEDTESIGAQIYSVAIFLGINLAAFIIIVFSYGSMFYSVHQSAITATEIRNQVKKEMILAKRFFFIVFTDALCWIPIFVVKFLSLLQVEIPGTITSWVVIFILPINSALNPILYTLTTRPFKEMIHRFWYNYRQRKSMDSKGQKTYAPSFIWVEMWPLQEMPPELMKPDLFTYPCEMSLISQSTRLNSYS
Test: RXFP1 cAMP assay (hRXFP1 HEK293 cAMP assay, HTRF)
Format: cell-based
Conditions: HEK293 cells stably expressing human RXFP1, 30 min at room temperature, read-out: cAMP hRXFP1 HEK293 Assay EC50
Description: RXFP1 Cyclic Adenosine Monophosphate (cAMP) Assays. […] Cells were dissociated and suspended in assay buffer. The assay buffer was HBSS buffer (with calcium and magnesium) containing 20 mM HEPES, 0.05% BSA, and 0.5 mM IBMX. […] The level of intracellular cAMP was determined using the HTRF HiRange cAMP assay reagent kit (Cisbio) according to manufacturer's instructions. […]
assay-metric: EC50 (nM)

a. COc1ccc(-c2cc([C@H](O)C(F)(F)F)ccc2F)cc1C(=O)NC1C2CCC(/C2=C/C2CC(F)(F)C2)C1C(=O)Nc1ccc(F)c(C(F)(F)F)c1 (stereo partly drawn)
b. O=C(N[C@H]1[C@@H](C(=O)Nc2ccc(F)c(C(F)(F)F)c2)[C@H]2CC[C@@H]1/C2=C\C1CC1)c1cc(C2=NOC3COCC23)ccc1F (single isomer, unassigned) [compound 677]
c. CNC(=O)OC(C(=O)O)c1ccc(F)c(-c2ccc(OC)c(C(=O)N[C@@H]3C4CCC(/C4=C/C(F)(F)F)[C@@H]3C(=O)Nc3ccc(F)c(C(F)(F)F)c3)c2)c1 (stereo partly drawn)
Sort the items above by EC50, starting with the smallest value. List each label, following the requested order.
c, a, b
(c: 5 nM, a: 18 nM, b: 501 nM)
